# System: ryegrass, Italian (Italian ryegrass, Lolium multiflorum)
# procedure-details: Test A preemergence
# Format: in vivo
# condition-details: 125 g ai/ha, Preemergence; visual injury after approximately 10 d; 0 to 100 scale where 0 is no effect and 100 is complete control
Each entry below lists one item and its recorded Plant response rating, Ryegrass, Italian value.
Please state the value as a number alone, without comment.

Example molecules with recorded Plant response rating, Ryegrass, Italian:
molecule="O=C(Nc1cccc(F)c1F)C1C(=O)N(CC=CBr)CC1c1cccc(C(F)(F)F)c1 (stereo not drawn)" value_type="Plant response rating, Ryegrass, Italian" value_measured=0
molecule="O=C1NCC(c2ccnc(C(F)(F)F)c2)C1C(=O)Nc1cccc(F)c1F (racemic)" value_type="Plant response rating, Ryegrass, Italian" value_measured=20
molecule="O=C1NCC(c2cc(F)c(F)cc2F)C1C(=O)Nc1ccc(F)c(F)c1F (stereo not drawn)" value_type="Plant response rating, Ryegrass, Italian" value_measured=0
molecule="O=C1NCC(c2cc(F)cc(Cl)c2)C1C(=O)Nc1cccc(F)c1F (stereo not drawn)" value_type="Plant response rating, Ryegrass, Italian" value_measured=50
molecule="NS(=O)(=O)c1ccccc1NC(=O)C1C(=O)NCC1c1cccc(C(F)(F)F)c1 (stereo not drawn)" value_type="Plant response rating, Ryegrass, Italian" value_measured=0
molecule="Cc1cccc(C2CN(C)C(=O)C2C(=O)Nc2cccc(F)c2F)c1 (stereo not drawn)" value_type="Plant response rating, Ryegrass, Italian" value_measured=80
molecule="CN1CC(c2ccc(C(F)(F)F)cc2)C(C(=O)Nc2ccccc2S(C)(=O)=O)C1=O (stereo not drawn)" value_type="Plant response rating, Ryegrass, Italian" value_measured=40
molecule="CC(C)Oc1cccc(C2CN(C)C(=O)C2C(=O)Nc2ccccc2C(F)(F)F)c1 (stereo not drawn)" value_type="Plant response rating, Ryegrass, Italian" value_measured=60

Need Plant response rating, Ryegrass, Italian, item O=C1NCC(c2ccc(Oc3ccccc3)cc2)C1C(=O)Nc1ccc(F)c(F)c1F (racemic) 0

---

# Test system: giant foxtail (Setaria faberii)
# procedure-details: Test A preemergence
# Assay type: in vivo
# condition-details: Setaria faberi, pre-emergence, 240 h, 125 g ai/ha, Preemergence, visual injury rating after approximately 10 d; read-out: Foxtail, Giant plant response rating (0 to 100 scale, 0 is no effect, 100 is complete control)
Each entry below lists one item and its recorded pest or weed control at 125 g/ha value.
Field: numeric (%). Do not append units.

Need pest or weed control at 125 g/ha, item `O=C1NC[C@H](c2ccc3c(c2)OCO3)[C@H]1C(=O)Nc1ccc(F)cc1F` 30

---

# Tested on: barnyardgrass (Echinochloa crus-galli)
# procedure-details: Test A preemergence
# Assay type: in vivo
# condition-details: Echinochloa crus-galli, pre-emergence, 240 h, 125 g ai/ha, preemergence; 0 to 100 scale where 0 is no effect and 100 is complete control; read-out: Barnyardgrass plant response rating
Lab note: cut-off is 70%. Strictly less in pest or weed control at 125 g/ha is 1. Exactly 70% or more is 0.

compound="CON1CC[C@H](c2ccc(F)cc2)[C@@H](C(=O)Nc2cccc(F)c2F)C1=O [Compound 918]" classification=1
compound="CSc1ccccc1NC(=O)[C@H]1C(=O)NC[C@@H]1c1cccc2c1OC(F)(F)O2 [Compound 865]" classification=1
compound="CS(=O)(=O)c1ccccc1NC(=O)[C@H]1C(=O)NC[C@@H]1c1cc(F)c(C(F)(F)F)c(F)c1 [Compound 839]" classification=0
compound="COc1c(F)ccc([C@H]2CNC(=O)[C@@H]2C(=O)Nc2ccccc2C(F)(F)F)c1Cl [Compound 891]" classification=1
compound="COc1cc(C(F)(F)F)ccc1[C@H]1CN(C)C(=O)[C@@H]1C(=O)Nc1ccccc1SC [Compound 860]" classification=0

Now turn to the next compound.
Identify whether the compound Cc1cccc(NC(=O)[C@H]2C(=O)N(C)C[C@@H]2c2ccc(C(F)(F)F)cc2)c1F [Compound 939] records pest or weed control at 125 g/ha below 70%. 0

---

Each entry below lists one item and its recorded melting point value.

Example compounds with recorded melting point:
compound="COc1ccc([C@H]2CN(C)C(=O)[C@@H]2C(=O)Nc2ccccc2F)cc1 [Compound 1342]" value_measured="103 to 107 °C"
compound="C=C(C)c1ccc([C@H]2CN(C)C(=O)[C@@H]2C(=O)Nc2cccc(F)c2C)cc1 [Compound 1150]" value_measured="137 to 141 °C"
compound="COc1cccc([C@H]2CNC(=O)[C@@H]2C(=O)Nc2cccc(F)c2F)c1F [Compound 1061]" value_measured="161 to 165 °C"

Next, consider the following compound.
Need melting point, item O=C1NCC[C@H](c2cccc(Cl)c2)[C@H]1C(=O)Nc1ccccc1F [Compound 1159] 141 to 143 °C

---

# System: barnyardgrass (Echinochloa crus-galli)
# procedure-details: Test B flooded paddy test
# Type: in vivo
# condition-details: Flood, 250 g ai/ha; 0 to 100 scale where 0 is no effect and 100 is complete control; 13 to 15 d
value-type: Plant response rating, Barnyardgrass
Please state the value as a number alone, without comment.

molecule="CN1CC(c2ccccc2)C(C(=S)Nc2ccccc2F)C1=O (centres unmarked)" study_system="barnyardgrass (Echinochloa crus-galli)" value_type="Plant response rating, Barnyardgrass" value_measured=0

Need Plant response rating, Barnyardgrass, item O=C1NCC(c2cccc(O)c2)C1C(=O)Nc1cccc(F)c1F (racemic) 0

---

# Tested on: giant foxtail (Setaria faberii)
# procedure-details: Test A postemergence
# Assay type: in vivo
# condition-details: 125 g ai/ha, postemergence; visual rating after approx. 10 d, 0 to 100 scale (0 no effect, 100 complete control)
Lab note: compare Plant response rating, Foxtail, Giant against 80. Equal or greater, write Yes. Smaller, write No.

Use the examples below as a reference point.
molecule="O=C1NCC(c2cc(C(F)(F)F)ccc2F)C1C(=O)Nc1cccc(F)c1F (stereo not drawn)" classification=Yes
molecule="CN1CC(c2cccc(OC(F)F)c2)C(C(=O)Nc2ccccc2F)C1=O (stereo not drawn)" classification=Yes
molecule="O=C1NCC(c2cccc(C(F)(F)F)c2)C1C(=O)Nc1ccccc1O (stereo not drawn)" classification=No
molecule="O=C1NCC(c2cc(F)c(F)cc2F)C1C(=O)Nc1ccc(F)cc1F (racemic)" classification=No
molecule="Cc1cc(F)ccc1NC(=O)C1C(=O)N(C)CC1c1cccc(C(F)(F)F)c1 (stereo not drawn)" classification=Yes

Identify whether the reported Plant response rating, Foxtail, Giant of the following molecule is 80 or greater: CCc1cccc(C2CN(C)C(=O)C2C(=O)Nc2ccccc2F)c1 (stereo not drawn) Yes

Identify whether the reported Plant response rating, Foxtail, Giant of the following molecule is 80 or greater: CN1CC(c2ccc(F)c(C(F)(F)F)c2)C(C(=O)Nc2cccc(F)c2F)C1=O (stereo not drawn) Yes

Identify whether the reported Plant response rating, Foxtail, Giant of the following molecule is 80 or greater: CN1CC(c2cccc(C(F)(F)F)c2)C(C(=O)Nc2ccccc2S(C)(=O)=O)C1=O (stereo not drawn) Yes

Identify whether the reported Plant response rating, Foxtail, Giant of the following molecule is 80 or greater: Cc1ccc(C2CNC(=O)C2C(=O)Nc2ccc(F)c(F)c2F)cc1C(F)(F)F (racemic) No

Identify whether the reported Plant response rating, Foxtail, Giant of the following molecule is 80 or greater: CC(C)Oc1cccc(C2CN(C)C(=O)C2C(=O)Nc2ccccc2F)c1 (stereo not drawn) Yes

Identify whether the reported Plant response rating, Foxtail, Giant of the following molecule is 80 or greater: O=C1NCC(c2ccc(Oc3ccccc3)cc2)C1C(=O)Nc1ccccc1Cl (racemic) No

Identify whether the reported Plant response rating, Foxtail, Giant of the following molecule is 80 or greater: O=C1NCC(c2cc(C(F)(F)F)ccc2F)C1C(=O)Nc1ccc(F)cc1F (stereo not drawn) Yes

Identify whether the reported Plant response rating, Foxtail, Giant of the following molecule is 80 or greater: O=C(Nc1ccccc1F)C1C(=O)N(CC=CBr)CC1c1cccc(C(F)(F)F)c1 (stereo not drawn) No

---

# Tested on: ryegrass, Italian (Italian ryegrass, Lolium multiflorum)
# procedure-details: Test A preemergence
# Format: in vivo
# condition-details: Lolium multiflorum, pre-emergence, 240 h, 500 g ai/ha, preemergence; visual injury rating about 10 d after treatment, 0 to 100 scale (0 no effect, 100 complete control); read-out: Ryegrass, Italian plant response rating
value-type: pest or weed control at 500 g/ha (%)
Field: numeric (%). Do not append units.

Example molecules with recorded pest or weed control at 500 g/ha:
compound_structure_string=O=C(Nc1ccccc1F)[C@H]1C(=O)N(C2CC2)CC[C@@H]1c1ccccc1 value_measured=0
compound_structure_string=CN1C[C@H](c2cc(F)cc(F)c2)[C@@H](C(=O)Nc2ncccc2Cl)C1=O value_measured=0
compound_structure_string=Cc1cc([C@H]2CNC(=O)[C@@H]2C(=O)Nc2ccccc2S(C)(=O)=O)ccc1C(F)(F)F value_measured=0
compound_structure_string=Cc1c(F)cccc1NC(=O)[C@H]1C(=O)N(C)C[C@@H]1c1cc(F)cc(C(F)(F)F)c1 value_measured=100

Next, consider the following molecule.
Need pest or weed control at 500 g/ha, item `CSc1ccccc1NC(=O)[C@H]1C(=O)N(C)C[C@@H]1c1cc(C)c(Br)c(C)c1` 30
